Field: pIC50. Provide a value for each of the compounds that follow.
biological target: BRD4-BD1 (Homo sapiens (Human)); assay: BRD4 biochemical activity test (TR-FRET), BD1; details: read-out: BRD4 Binding (BD1), IC50
Units for pIC50: none; it is -log10 of a concentration expressed in mol/L.

Reported pIC50 (BRD4-BD1 (Homo sapiens (Human))) for entry Cc1sc2c(c1C)C(c1ccc(Cl)cc1)=N[C@@H](CC(=O)Nc1ccc3c(c1)C(C)(C)OC3=O)c1nnc(C)n1-2 is 6.83

Reported pIC50 (BRD4-BD1 (Homo sapiens (Human))) for entry Cc1sc2c(c1C)C(c1ccc(Cl)cc1)=N[C@@H](CC(=O)Nc1ccc3nonc3c1)c1nnc(C)n1-2 is 6.61

Reported pIC50 (BRD4-BD1 (Homo sapiens (Human))) for entry Cc1sc2c(c1C)C(c1ccc(Cl)cc1)=N[C@@H](CC(=O)Nc1ccn3c(=O)c(O)cnc3c1)c1nnc(C)n1-2 is 7.08

Reported pIC50 (BRD4-BD1 (Homo sapiens (Human))) for entry Cc1sc2c(c1C)C(c1ccc(Cl)cc1)=N[C@@H](CC(=O)Nc1ccc3c(c1)CNC3)c1nnc(C)n1-2 is 7.64

Source of measurements: patent US11312726B2
